Target entity: Mitogen-activated protein kinase kinase kinase kinase 3 (Homo sapiens, UniProt Q8IVH8); note: in the data inactive means no Kd found up to 30 µM
Sequence (Q8IVH8 whole entry): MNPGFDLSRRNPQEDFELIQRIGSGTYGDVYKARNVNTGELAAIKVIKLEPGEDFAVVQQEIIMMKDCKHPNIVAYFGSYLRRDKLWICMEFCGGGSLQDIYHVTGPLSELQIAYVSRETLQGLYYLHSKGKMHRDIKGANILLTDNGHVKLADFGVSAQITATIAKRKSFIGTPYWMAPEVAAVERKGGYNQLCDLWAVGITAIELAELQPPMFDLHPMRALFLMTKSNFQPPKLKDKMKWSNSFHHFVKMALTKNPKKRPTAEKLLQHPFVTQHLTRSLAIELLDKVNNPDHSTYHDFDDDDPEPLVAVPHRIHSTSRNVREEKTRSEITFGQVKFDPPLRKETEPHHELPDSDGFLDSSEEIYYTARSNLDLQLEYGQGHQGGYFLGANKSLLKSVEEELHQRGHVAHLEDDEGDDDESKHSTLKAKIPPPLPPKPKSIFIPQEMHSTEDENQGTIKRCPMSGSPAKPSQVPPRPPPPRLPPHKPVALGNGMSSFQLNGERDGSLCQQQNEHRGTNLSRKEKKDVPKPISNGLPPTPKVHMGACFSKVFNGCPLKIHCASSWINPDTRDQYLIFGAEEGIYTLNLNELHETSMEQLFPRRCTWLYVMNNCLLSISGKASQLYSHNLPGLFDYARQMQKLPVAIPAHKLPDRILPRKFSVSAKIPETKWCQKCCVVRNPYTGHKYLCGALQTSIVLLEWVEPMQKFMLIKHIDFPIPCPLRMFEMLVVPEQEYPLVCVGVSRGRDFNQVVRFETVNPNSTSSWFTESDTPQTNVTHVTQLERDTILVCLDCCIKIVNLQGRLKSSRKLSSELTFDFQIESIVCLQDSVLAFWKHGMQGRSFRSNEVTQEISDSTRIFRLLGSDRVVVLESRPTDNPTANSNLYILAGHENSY
Active and inactive are the calls of the source.
Your answer must be one of the following: active, inactive

Input: Tell me the assay call for COC(=O)[C@@]1(O)C[C@H]2O[C@]1(C)n1c3ccccc3c3c4c(c5c6ccccc6n2c5c31)C(=O)NC4 [K-252A] please.
Output: active

Input: Per the records of this test, what outcome belongs to "CCN1CCN(Cc2ccc(-c3cc4c(N[C@H](C)c5ccccc5)ncnc4[nH]3)cc2)CC1" ?
Output: inactive

Input: What is the recorded call for this molecule in the test? "OCCn1cc(-c2cnc3nnn(Cc4ccc5ncccc5c4)c3n2)cn1"
Output: inactive

Input: Recorded test outcome, item "COc1cc(OC)c(/C=C/S(=O)(=O)Cc2ccc(OC)c(NCC(=O)O)c2)c(OC)c1"
Output: inactive

Input: Recorded test outcome, item Cc1cc2c(F)c(Oc3ncnn4cc(OC[C@@H](C)OC(=O)[C@H](C)N)c(C)c34)ccc2[nH]1 [BRIVANIB ALANINATE]
Output: inactive

Input: Please indicate how the test categorized "Cc1ccc(NC(=O)c2ccc(CN3CC[C@H](N(C)C)C3)c(C(F)(F)F)c2)cc1Nc1nccc(-c2cncnc2)n1" .
Output: inactive

Input: Outcome logged for "Cn1ncc(Cl)c1-c1cc(C(=O)N[C@H](CN)Cc2cccc(F)c2)sc1Cl" in this assay:
Output: inactive

Input: Recorded test outcome, item "Cc1ccc(-n2nc(C(C)(C)C)cc2NC(=O)NCc2cc(F)ccc2Oc2ccc3c(cnn3CCO)c2)cc1"
Output: inactive

Input: Tell me the assay call for "Cn1cc(-c2ccc3nnc(C(F)(F)c4ccc5ncccc5c4)n3n2)cn1" please.
Output: inactive

Input: # fetch the recorded call for CN1N=C(N)c2cn([C@@H]3O[C@H](COP(=O)(O)O)[C@@H](O)[C@H]3O)c3ncnc1c23 [TRICIRIBINE PHOSPHATE] here
Output: inactive

Input: What did this assay record as the result for "C[C@@H](c1ccc2nccn2c1)n1nnc2ncc(-c3cnn(C)c3)nc21" ?
Output: inactive

Input: I'd appreciate the recorded outcome for "CN(C)C(=O)c1cc2cnc(Nc3ccc(N4CCNCC4)cn3)nc2n1C1CCCC1" from this test.
Output: inactive

Input: What did this assay record as the result for "CC(C)Nc1cc(-c2c[nH]c(C(=O)N[C@H](CO)c3cccc(Cl)c3)c2)c(Cl)cn1" ?
Output: inactive

Input: Answer briefly: the call reported for "N[C@@H]1CCCN(c2c(/C=C3\SC(=O)NC3=O)cccc2-c2ccccc2)C1" in this assay.
Output: inactive

Input: Which result was noted for this molecule in the test: "CNC(=O)c1ccc(-c2cnc3ncc(Cc4ccc5ncccc5c4)n3n2)cc1F"
Output: inactive

Input: Returns: the outcome recorded for "O=C(Nc1cccc(Cl)c1)Nc1ncc(CCNc2ncnc3ccsc23)s1" in this assay.
Output: inactive
